The reported measurements were obtained from PubChem BioAssay (NCI).

Test: NCI Yeast Anticancer Drug Screen. Data for the cln2 rad14 strain (AID 165);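 also: 0% = growth equal to vehicle treated cultures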
Settings: S. cerevisiae cln2 rad14 strain, at 50.0 µM, hits give high values
About 79,000 compounds went through this panel and 15% of them were active in at least one assay; those are over-represented in the sample as a whole.
QUANTITY: growth inhibition (%)
Give a bare numeral; the unit % is implied.

Which growth inhibition reading was recorded for the molecule `CN(C)CCCC(=O)OCC[N+](C)(C)C` ?
64.3

# get_value(readout='growth inhibition', item= `CCCCCCCCCCNC(=O)CBr` )
18.9

Any idea what growth inhibition was measured for `Cc1c2ccnc(-c3ccc(F)cc3)c2cc2c1[nH]c1ccccc12` ?
-35.9

Given the entry COc1cc2c(cc1C(C)C)CCC1C(C)(C#N)CCCC21C (stereo unspecified) , report its measured growth inhibition.
80.1

Any idea what growth inhibition was measured for `CSc1cccc(N2C(=O)C=CC2=O)c1` ?
91.5

Which measured growth inhibition value corresponds to OC1CC2CCC(C1)N2CCCN1c2ccccc2Sc2ccc(Cl)cc21 (stereo unspecified) ?
97.5

I have this molecule here, CC(=O)OC1COC(n2ccc3cc(Br)c([N+](=O)[O-])cc32)C(OC(C)=O)C1OC(C)=O (stereo unspecified) , and I need its recorded growth inhibition.
5.45

Look up growth inhibition: `O=C1/C(=C/c2ccc([N+](=O)[O-])cc2)CNC/C1=C\c1ccc([N+](=O)[O-])cc1`
74

Entry CCOC(=O)C(=O)CC1=Nc2ccccc2SC(c2cccc(C)c2)C1 (stereo unspecified) : reported growth inhibition = ?
50

Data request, read-out growth inhibition, for `O=C(Sc1c(-c2ccccc2)c(=O)n(-c2ccccc2)c(=S)n1-c1ccccc1)c1cccs1`
56

Recorded growth inhibition for `Cc1ccc(C)c(S(=O)(=O)Nc2c([N+](=O)[O-])cc([N+](=O)[O-])c3ccccc23)c1` , please?
86
